- Test system: Mycobacterium tuberculosis Erdman (autoluminescent)
- assay.method.text: total FIC50 (Loewe) at 50% inhibition, three-drug combination (log2); higher = more antagonistic
- condition.info: in vitro model: dormancy (butyrate + nitrate, low O2); time point: constant (~7 days, model-specific)
What total FIC50 was measured for each of the following?
Numbers only.

Recorded total FIC50, per entry:
CC[C@@H](CO)NCCN[C@@H](CC)CO [ethambutol] + CC(=O)NC[C@H]1CN(c2ccc(N3CCOCC3)c(F)c2)C(=O)O1 [linezolid] + NC(=O)c1cnccn1 [pyrazinamide]
0.819
COc1c(N2C[C@@H]3CCCN[C@@H]3C2)c(F)cc2c(=O)c(C(=O)O)cn(C3CC3)c12 [moxifloxacin] + NC(=O)c1cnccn1 [pyrazinamide] + CO[C@H]1/C=C/O[C@@]2(C)Oc3c(C)c(O)c4c(O)c(c(/C=N/N5CCN(C6CCCC6)CC5)c(O)c4c3C2=O)NC(=O)/C(C)=C\C=C\[C@H](C)[C@H](O)[C@@H](C)[C@@H](O)[C@@H](C)[C@H](OC(C)=O)[C@@H]1C [rifapentine]
0.262
COc1nc2ccc(Br)cc2cc1[C@@H](c1ccccc1)[C@@](O)(CCN(C)C)c1cccc2ccccc12 [bedaquiline] + CC[C@@H](CO)NCCN[C@@H](CC)CO [ethambutol] + NC(=O)c1cnccn1 [pyrazinamide]
0.665
CC(=O)NC[C@H]1CN(c2ccc(N3CCOCC3)c(F)c2)C(=O)O1 [linezolid] + O=[N+]([O-])c1cn2c(n1)OC[C@@H](OCc1ccc(OC(F)(F)F)cc1)C2 [pretomanid] + CO[C@H]1/C=C/O[C@@]2(C)Oc3c(C)c(O)c4c(O)c(c(/C=N/N5CCN(C6CCCC6)CC5)c(O)c4c3C2=O)NC(=O)/C(C)=C\C=C\[C@H](C)[C@H](O)[C@@H](C)[C@@H](O)[C@@H](C)[C@H](OC(C)=O)[C@@H]1C [rifapentine]
0.906
COc1nc2ccc(Br)cc2cc1[C@@H](c1ccccc1)[C@@](O)(CCN(C)C)c1cccc2ccccc12 [bedaquiline] + CC(=O)NC[C@H]1CN(c2ccc(N3CCOCC3)c(F)c2)C(=O)O1 [linezolid] + NC(=O)c1cnccn1 [pyrazinamide]
-0.772
COc1c(N2C[C@@H]3CCCN[C@@H]3C2)c(F)cc2c(=O)c(C(=O)O)cn(C3CC3)c12 [moxifloxacin] + O=[N+]([O-])c1cn2c(n1)OC[C@@H](OCc1ccc(OC(F)(F)F)cc1)C2 [pretomanid] + NC(=O)c1cnccn1 [pyrazinamide]
0.104

We now examine a further compound.
[in] Please give the measured total FIC50 for this compound: CC(C)/N=c1\cc2n(-c3ccc(Cl)cc3)c3ccccc3nc-2cc1Nc1ccc(Cl)cc1 [clofazimine] + COc1c(N2C[C@@H]3CCCN[C@@H]3C2)c(F)cc2c(=O)c(C(=O)O)cn(C3CC3)c12 [moxifloxacin] + NC(=O)c1cnccn1 [pyrazinamide]
[out] -0.332

----------
- Tested on: Mycobacterium tuberculosis Erdman (autoluminescent)
- assay.method.text: total FIC50 (Loewe) at 50% inhibition, three-drug combination (log2); higher = more antagonistic
- condition.info: in vitro model: valerate; time point: constant (~7 days, model-specific)
value.type: total FIC50

CC(=O)NC[C@H]1CN(c2ccc(N3CCOCC3)c(F)c2)C(=O)O1 [linezolid] + O=[N+]([O-])c1cn2c(n1)OC[C@@H](OCc1ccc(OC(F)(F)F)cc1)C2 [pretomanid] + CO[C@H]1/C=C/O[C@@]2(C)Oc3c(C)c(O)c4c(O)c(c(/C=N/N5CCN(C)CC5)c(O)c4c3C2=O)NC(=O)/C(C)=C\C=C\[C@H](C)[C@H](O)[C@@H](C)[C@@H](O)[C@@H](C)[C@H](OC(C)=O)[C@@H]1C [rifampicin]
0.394
COc1nc2ccc(Br)cc2cc1[C@@H](c1ccccc1)[C@@](O)(CCN(C)C)c1cccc2ccccc12 [bedaquiline] + NNC(=O)c1ccncc1 [isoniazid] + NC(=O)c1cnccn1 [pyrazinamide]
0.527

We now examine a further compound.
[in] Recall the recorded total FIC50 for CC[C@@H](CO)NCCN[C@@H](CC)CO [ethambutol] + O=[N+]([O-])c1cn2c(n1)OC[C@@H](OCc1ccc(OC(F)(F)F)cc1)C2 [pretomanid] + CO[C@H]1/C=C/O[C@@]2(C)Oc3c(C)c(O)c4c(O)c(c(/C=N/N5CCN(C)CC5)c(O)c4c3C2=O)NC(=O)/C(C)=C\C=C\[C@H](C)[C@H](O)[C@@H](C)[C@@H](O)[C@@H](C)[C@H](OC(C)=O)[C@@H]1C [rifampicin] with Mycobacterium tuberculosis Erdman (autoluminescent) and state it.
[out] 0.363

Origin of the recorded values: the supplement of paper PMC8617591
